These entries and their values trace back to patent US20240158438A1.

# TEST SYSTEM: CYP1A2 (Homo sapiens (Human), UniProt P05177)
# Sequence (P05177 whole entry): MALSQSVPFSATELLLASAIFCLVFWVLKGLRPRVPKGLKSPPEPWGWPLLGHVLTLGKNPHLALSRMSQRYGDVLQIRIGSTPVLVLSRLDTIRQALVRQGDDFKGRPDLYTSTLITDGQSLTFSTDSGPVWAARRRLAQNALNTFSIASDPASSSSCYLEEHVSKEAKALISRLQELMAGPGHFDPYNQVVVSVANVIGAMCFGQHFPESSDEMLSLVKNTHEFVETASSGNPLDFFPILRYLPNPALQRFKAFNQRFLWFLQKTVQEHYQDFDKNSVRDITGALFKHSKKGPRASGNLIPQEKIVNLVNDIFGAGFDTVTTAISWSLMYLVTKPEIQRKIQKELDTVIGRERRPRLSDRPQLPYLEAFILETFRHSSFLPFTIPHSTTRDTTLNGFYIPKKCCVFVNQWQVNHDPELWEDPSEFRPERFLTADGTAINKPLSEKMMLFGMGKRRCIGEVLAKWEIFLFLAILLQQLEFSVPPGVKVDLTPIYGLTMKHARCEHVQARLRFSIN
# METHOD DESCRIPTION: in vitro
# Format: in vitro ADME
# RECORDED CONDITIONS: microsomes, 10 min
pIC50: −log10 of the molar value. Non-standard residues stand in square brackets, D forms with d. Residues, ends and D or L forms follow the SMILES beside them. *: point of attachment. Pyrrolidine3carbonyl(3S) = O=C([C@H]1CCNC1)*; dBta = N[C@H](Cc1csc2ccccc12)C(=O)O; Ac4c(3-oxa) = NC1(C(=O)O)COC1; Api = NC1(C(=O)O)CCNCC1; X3 = NCC1(C(=O)*)CCC1
ENDPOINT: pIC50

{"COMPOUND": "NCCCC[C@@H](NC(=O)[C@H](Cc1ccccc1)NC(=O)[C@@H](Cc1c[nH]c2ccccc12)NC(=O)[C@@H](Cc1csc2ccccc12)NC(=O)C1(CN)CCC1)C(N)=O [Compound 52] (X3-[dBta][dW]F[dK]-NH2)", "RESULT": "< 4.30"}
{"COMPOUND": "NCCCC[C@@H](NC(=O)[C@H](Cc1ccccc1)NC(=O)[C@@H](Cc1c[nH]c2ccccc12)NC(=O)[C@@H](Cc1csc2ccccc12)NC(=O)C1(N)COC1)C(N)=O [Compound 54] (H-[Ac4c(3-oxa)][dBta][dW]F[dK]-NH2)", "RESULT": "< 4.30"}
{"COMPOUND": "NCCCC[C@@H](NC(=O)[C@H](Cc1ccccc1)NC(=O)[C@@H](Cc1c[nH]c2ccccc12)NC(=O)[C@@H](Cc1csc2ccccc12)NC(=O)[C@@H]1CCCN1)C(N)=O [Compound 45] (H-P[dBta][dW]F[dK]-NH2)", "RESULT": "< 4.30"}

Next compound, please.
[ask] Fill blank: measured pIC50 of the compound NC(=O)C1(NC(=O)[C@H](Cc2ccccc2)NC(=O)[C@@H](Cc2c[nH]c3ccccc23)NC(=O)[C@@H](Cc2csc3ccccc23)NC(=O)[C@H]2CCNC2)CCNCC1 [Compound 26] ({Pyrrolidine3carbonyl(3S)}-[dBta][dW]F[Api]-NH2) is ____.
[reply] < 4.30

* * *

# TEST SYSTEM: GHSR-1a (Homo sapiens (Human), UniProt Q92847)
# Sequence (Q92847 whole entry): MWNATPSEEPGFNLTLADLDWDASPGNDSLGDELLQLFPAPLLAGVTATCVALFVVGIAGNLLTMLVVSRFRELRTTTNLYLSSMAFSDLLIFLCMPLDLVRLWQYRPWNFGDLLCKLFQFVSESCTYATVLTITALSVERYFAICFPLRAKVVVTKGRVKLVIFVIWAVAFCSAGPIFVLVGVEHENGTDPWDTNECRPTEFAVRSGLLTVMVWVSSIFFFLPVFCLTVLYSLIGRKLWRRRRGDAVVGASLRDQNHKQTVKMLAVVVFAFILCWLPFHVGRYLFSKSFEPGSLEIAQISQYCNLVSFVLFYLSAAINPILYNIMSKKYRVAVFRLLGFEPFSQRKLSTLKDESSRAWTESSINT
# METHOD DESCRIPTION: Agonistic activity for GHSR-1a, FLIPR calcium assay
# Format: cell-based
# RECORDED CONDITIONS: agonist activity assay, Flp In-CHO-GHSR Stable Pool cells, FLIPR calcium 6 kit; read-out: The activity (IC50) of polypeptide compounds for GHSR-1a
Non-standard residues stand in square brackets, D forms with d. Residues, ends and D or L forms follow the SMILES beside them. dBta = N[C@H](Cc1csc2ccccc12)C(=O)O; dAze = O=C(O)[C@H]1CCN1
ENDPOINT: pIC50
In plain terms, pIC50 is the concentration in mol/L turned into minus its base-10 logarithm.

[ask] Report pIC50 for NCCCC[C@@H](NC(=O)[C@H](Cc1ccccc1)NC(=O)[C@@H](Cc1c[nH]c2ccccc12)NC(=O)[C@@H](Cc1csc2ccccc12)NC(=O)[C@H]1CCN1)C(N)=O [Compound 55] (H-[dAze][dBta][dW]F[dK]-NH2) please.
[reply] 7.70

* * *

# TEST SYSTEM: GHSR-1a (Homo sapiens (Human))
# METHOD DESCRIPTION: Agonistic activity for GHSR-1a, FLIPR calcium assay
# RECORDED CONDITIONS: agonist activity assay, Flp In-CHO-GHSR Stable Pool cells, FLIPR calcium 6 kit; read-out: The activity (IC50) of polypeptide compounds for GHSR-1a
Non-standard residues stand in square brackets, D forms with d. Residues, ends and D or L forms follow the SMILES beside them. *: point of attachment. X5 = NC12CC3CC(C1)CC(CC(=O)*)(C3)C2; dBta = N[C@H](Cc1csc2ccccc12)C(=O)O; dNle = CCCC[C@@H](N)C(=O)O; dAbu = CC[C@@H](N)C(=O)O
pIC50 for assorted molecules
// field semantics: pIC50 = negative decimal log of concentration (mol/L)

{"MOLECULE": "CCCC[C@@H](NC(=O)[C@@H](CCCCN)NC(=O)[C@H](Cc1ccccc1)NC(=O)[C@@H](Cc1c[nH]c2ccccc12)NC(=O)[C@@H](Cc1csc2ccccc12)NC(=O)[C@H](N)CC)C(=O)N[C@H](C)C(N)=O [Compound 82] (H-[dAbu][dBta][dW]F[dK][dNle][dA]-NH2)", "MEASURED NUMBER": 8.05}

// moving on: another record for pIC50
[ask] Would you mind telling me what pIC50 value was observed for N=C(N)NCCC[C@@H](NC(=O)[C@H](Cc1ccccc1)NC(=O)[C@@H](Cc1c[nH]c2ccccc12)NC(=O)[C@@H](Cc1csc2ccccc12)NC(=O)CC12CC3CC(CC(N)(C3)C1)C2)C(N)=O [Compound 68] (X5-[dBta][dW]F[dR]-NH2) ?
[reply] 6.48

* * *

# TEST SYSTEM: UniProtKB Q92847
# METHOD DESCRIPTION: Agonistic activity for GHSR-1a, FLIPR calcium assay
# RECORDED CONDITIONS: agonist activity assay, Flp In-CHO-GHSR Stable Pool cells, FLIPR calcium 6 kit; read-out: The activity (IC50) of polypeptide compounds for GHSR-1a
# Excerpt: The use of recombinant expression of GHSR provides several advantages; for example, the receptor can be expressed in a determined cell system, so that it is easier to distinguish between the reactions of the compounds with GHSR and the reactions with other receptors. For example, cell lines such as HEK293, COS7 and CHO that […] can be used to express GHSR, and the same cell lines without expression vectors are used as controls. […]
pIC50: −log10 of the molar value. Non-standard residues stand in square brackets, D forms with d. Residues, ends and D or L forms follow the SMILES beside them. *: point of attachment. Pyrrolidine3carbonyl(3S) = O=C([C@H]1CCNC1)*; dBta = N[C@H](Cc1csc2ccccc12)C(=O)O; dCit = NC(=O)NCCC[C@@H](N)C(=O)O; dNle = CCCC[C@@H](N)C(=O)O; Api = NC1(C(=O)O)CCNCC1; dAze = O=C(O)[C@H]1CCN1
ENDPOINT: pIC50

{"COMPOUND": "CCCC[C@@H](N)C(=O)N[C@H](Cc1csc2ccccc12)C(=O)N[C@H](Cc1c[nH]c2ccccc12)C(=O)N[C@@H](Cc1ccccc1)C(=O)NC1(C(N)=O)CCNCC1 [Compound 19] (H-[dNle][dBta][dW]F[Api]-NH2)", "MEASURED NUMBER": 7.37}
{"COMPOUND": "NCCCC[C@@H](N)C(=O)N[C@H](Cc1csc2ccccc12)C(=O)N[C@H](Cc1c[nH]c2ccccc12)C(=O)N[C@@H](Cc1ccccc1)C(=O)NC1(C(N)=O)CCNCC1 [Compound 4] (H-[dK][dBta][dW]F[Api]-NH2)", "MEASURED NUMBER": 5.95}
{"COMPOUND": "NC(=O)[C@H](Cc1ccccc1)NC(=O)[C@@H](Cc1c[nH]c2ccccc12)NC(=O)[C@@H](Cc1csc2ccccc12)NC(=O)C1CNC1 [Compound 73]", "MEASURED NUMBER": 7.80}
{"COMPOUND": "NC(=O)NCCC[C@@H](N)C(=O)N[C@H](Cc1csc2ccccc12)C(=O)N[C@H](Cc1c[nH]c2ccccc12)C(=O)N[C@@H](Cc1ccccc1)C(=O)NC1(C(N)=O)CCNCC1 [Compound 1] (H-[dCit][dBta][dW]F[Api]-NH2)", "MEASURED NUMBER": 6.82}

a = CC(=O)NCCCC[C@@H](N)C(=O)N[C@H](Cc1csc2ccccc12)C(=O)N[C@H](Cc1c[nH]c2ccccc12)C(=O)N[C@@H](Cc1ccccc1)C(=O)NC1(C(N)=O)CCNCC1 [Compound 10] (H-[dK](Ac)[dBta][dW]F[Api]-NH2)
b = N=C(N)NCCC[C@@H](NC(=O)[C@H](Cc1ccccc1)NC(=O)[C@@H](Cc1c[nH]c2ccccc12)NC(=O)[C@@H](Cc1csc2ccccc12)NC(=O)[C@H]1CCNC1)C(N)=O [Compound 66] ({Pyrrolidine3carbonyl(3S)}-[dBta][dW]F[dR]-NH2)
c = N=C(N)NCCC[C@@H](NC(=O)[C@H](Cc1ccccc1)NC(=O)[C@@H](Cc1c[nH]c2ccccc12)NC(=O)[C@@H](Cc1csc2ccccc12)NC(=O)[C@H]1CCN1)C(N)=O [Compound 65] (H-[dAze][dBta][dW]F[dR]-NH2)
d = CC(=O)N[C@H](CCCCN)C(=O)N[C@H](Cc1csc2ccccc12)C(=O)N[C@H](Cc1c[nH]c2ccccc12)C(=O)N[C@@H](Cc1ccccc1)C(=O)NC1(C(N)=O)CCNCC1 [Compound 7] (Ac-[dK][dBta][dW]F[Api]-NH2)
e = CC(=O)NCCCC[C@@H](N)C(=O)N[C@H](Cc1csc2ccccc12)C(=O)N[C@H](Cc1c[nH]c2ccccc12)C(=O)N[C@@H](Cc1ccccc1)C(=O)N[C@H](CCCCN)C(N)=O [Compound 40] (H-[dK](Ac)[dBta][dW]F[dK]-NH2)
[ask] Ascending by pIC50, please: list the compounds accordingly. List the labels, following the order given in the request.
[reply] d, e, a, c, b
